# key: entry, value: inhibition at 10 µM
- target.desc: rabbit reticulocyte 15-LO (Oryctolagus cuniculus, UniProt P12530)
- Construct: rabbit reticulocyte 15-LO; from tissue; host or cells: rabbit reticulocytes
- Sequence (P12530 whole entry): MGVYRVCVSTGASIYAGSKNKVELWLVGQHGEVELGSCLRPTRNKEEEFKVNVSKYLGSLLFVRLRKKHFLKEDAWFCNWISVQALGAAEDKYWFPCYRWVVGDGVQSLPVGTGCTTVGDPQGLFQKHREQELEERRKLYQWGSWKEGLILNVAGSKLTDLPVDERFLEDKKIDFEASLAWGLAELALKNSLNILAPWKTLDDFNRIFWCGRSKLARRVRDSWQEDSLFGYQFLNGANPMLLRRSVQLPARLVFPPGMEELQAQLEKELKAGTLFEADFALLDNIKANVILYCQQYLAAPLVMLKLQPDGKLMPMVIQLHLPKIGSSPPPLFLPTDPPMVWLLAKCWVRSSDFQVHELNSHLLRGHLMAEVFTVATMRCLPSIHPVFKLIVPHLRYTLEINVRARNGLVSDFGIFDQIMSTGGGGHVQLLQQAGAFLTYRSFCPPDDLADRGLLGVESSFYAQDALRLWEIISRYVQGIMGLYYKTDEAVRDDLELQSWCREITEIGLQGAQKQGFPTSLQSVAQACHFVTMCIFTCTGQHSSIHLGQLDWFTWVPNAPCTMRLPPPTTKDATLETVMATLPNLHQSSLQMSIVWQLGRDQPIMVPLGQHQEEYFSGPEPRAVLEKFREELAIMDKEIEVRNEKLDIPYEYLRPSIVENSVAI
- experimental.details: 15-Lipoxygenase Assay: inhibition of 15-LO with linoleic acid as substrate, HPLC method of Auerbach et al.
- Type: biochemical
- condition.summary: read-out: 15-LO inhibitory activity, % @ 10 μM
- Description: The compounds described above are effective inhibitors of 15-LO when evaluated in standard assays routinely utilized to measure 15-LO activity. Specifically, representative compounds were evaluated by the methods described by Auerbach, et al., Analytical Biochemistry, 1992; 201:375-380.Two in vitro assays were utilized, both utilizing rabbit reticulocyte 15-LO, and linoleic acid as substrate, to enzymatically produce a peroxide oxidation product known as 13(S)-HPODE. […]
# unit: % | format: bare number

These recorded examples may help you get a feel for the data.
chem.smiles: CCOC(=O)c1sc(-c2nc3ccccc3[nH]2)nc1-c1ccccc1
val: 69

chem.smiles: O=C(O)c1csc(-c2nc3ccccc3[nH]2)n1
val: 1.38

Moving on to the next molecule.
inhibition at 10 µM for N#Cc1cccc(-c2csc(-c3nc4ccccc4[nH]3)n2)c1 ? 45
